Entry source: paper PMC6027421

molecular target: CYP17A1_WT (Homo sapiens); assay: Inhibition of PROG 17α-hydroxylation, WT CYP17A1; assay type: biochemical
Sequence (P05093 whole entry): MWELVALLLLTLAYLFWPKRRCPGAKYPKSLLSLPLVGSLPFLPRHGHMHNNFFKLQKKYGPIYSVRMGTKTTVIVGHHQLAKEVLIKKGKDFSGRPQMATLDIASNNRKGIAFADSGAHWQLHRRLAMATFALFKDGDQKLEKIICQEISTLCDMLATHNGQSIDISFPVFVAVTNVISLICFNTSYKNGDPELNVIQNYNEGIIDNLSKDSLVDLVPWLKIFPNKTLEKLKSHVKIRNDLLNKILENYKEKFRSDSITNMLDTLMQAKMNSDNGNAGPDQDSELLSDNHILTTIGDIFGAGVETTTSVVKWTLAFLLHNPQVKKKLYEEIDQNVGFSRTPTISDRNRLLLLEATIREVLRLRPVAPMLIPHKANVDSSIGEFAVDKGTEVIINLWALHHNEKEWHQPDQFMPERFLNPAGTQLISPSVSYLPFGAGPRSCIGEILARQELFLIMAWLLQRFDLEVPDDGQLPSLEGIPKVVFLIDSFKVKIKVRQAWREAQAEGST

{"columns": ["compound", "IC50 [nM]"],
 "data": [
  ["CC(=O)[C@H]1CC[C@H]2[C@@H]3CC=C4C[C@@H](O)CC[C@]4(C)[C@H]3CC[C@]12C [PREG, pregnenolone]", 900],
  ["C[C@]12CC[C@H](O)CC1=CC[C@@H]1[C@@H]2CC[C@]2(C)C(c3cccnc3)=CC[C@@H]12 [Abiraterone, abiraterone]", 40],
  ["CC(=O)[C@@]1(O)CC[C@H]2[C@@H]3CC=C4C[C@@H](O)CC[C@]4(C)[C@H]3CC[C@@]21C [17OH-PREG, 17α-hydroxypregnenolone]", 1700]
]}
